Assay: Water solubility (excess compound suspended in distilled water, supernatant measured by HPLC)
Assay type: physicochemical
Settings: 25 °C, water, thermodynamic from solid
measurementType: solubility at 12 h (µg/mL)
Report the figure in µg/mL without appending any unit label.

Problem: Would you kindly share the measured solubility at 12 h for CC(C)(C)c1cc(C(C)(C)C)c(NC(=O)c2c[nH]c3ccccc3c2=O)cc1O [ivacaftor, Ivacaftor] ?
Result: 0.1

Origin of values: patent US20230124589A1
